System: human SMAD7 mRNA
Test: Antisense inhibition of human SMAD7 mRNA expression in Hep3B cells by 3-10-3 cEt gapmers, 10,000 nM, electroporation (Example 2)
Assay type: cell-based
Settings: Hep3B cells, electroporation with 10,000 nM antisense oligonucleotide, approximately 24 hours, RTS5062, percent inhibition of SMAD7 mRNA relative to untreated control cells
Procedure: Antisense oligonucleotides were designed to target human SMAD7 mRNA and were tested for their effects on SMAD7 mRNA expression in vitro. […] After a treatment period of approximately 24 hours, RNA was isolated from the cells and SMAD7 mRNA levels were measured by quantitative real-time PCR. […] SMAD7 mRNA levels were adjusted according to total RNA content, as measured by RIBOGREEN®. […]
Strand notation (5' to 3'): a small letter for the sugar, then the base; units joined by * are phosphorothioate-linked, units joined directly phosphodiester-linked; [ ] holds rarer units or linkages, { } end groups; capitals alone tell only the bases. k = constrained ethyl (cEt); [5mC] = 5-methylcytosine; d = 2'-deoxy (DNA)
quantity.kind: % Inhibition (%)
Give bare numbers, in %.

* 799312 (antisense k[5mC]*kA*kT*d[5mC]*dT*dT*dT*dA*dA*dG*d[5mC]*dA*d[5mC]*kG*k[5mC]*kT) [compound 799312] | 66
* 799749 (antisense kT*kG*k[5mC]*dT*dT*dG*dG*d[5mC]*d[5mC]*dT*dT*dA*d[5mC]*k[5mC]*kA*kT) [compound 799749] | 17
* 799564 (k[5mC]*kA*kG*dA*dT*dA*dA*d[5mC]*dA*dG*dA*dG*dT*kA*kT*kA; antisense) [compound 799564] | 70
* 799823 (antisense kA*k[5mC]*kA*dG*dG*dA*dA*dA*dG*dT*dG*dG*dA*kG*kG*kA) [compound 799823] | 46

Lab note: each substance below needs its % Inhibition filled in.
1. 799784 (k[5mC]*kA*kG*dG*dA*dA*d[5mC]*dT*dG*dG*dT*d[5mC]*d[5mC]*kT*k[5mC]*kT; antisense) [compound 799784]
2. 799803 (kA*kG*kA*dA*dG*dG*dA*dT*dG*dA*dA*dT*dG*kT*kG*kA; antisense) [compound 799803]

result:
1: 19; 2: 10
